# Measurement Target: Alkaline phosphatase, tissue-nonspecific isozyme (Homo sapiens, UniProt P05186)
# Sequence (P05186 whole entry): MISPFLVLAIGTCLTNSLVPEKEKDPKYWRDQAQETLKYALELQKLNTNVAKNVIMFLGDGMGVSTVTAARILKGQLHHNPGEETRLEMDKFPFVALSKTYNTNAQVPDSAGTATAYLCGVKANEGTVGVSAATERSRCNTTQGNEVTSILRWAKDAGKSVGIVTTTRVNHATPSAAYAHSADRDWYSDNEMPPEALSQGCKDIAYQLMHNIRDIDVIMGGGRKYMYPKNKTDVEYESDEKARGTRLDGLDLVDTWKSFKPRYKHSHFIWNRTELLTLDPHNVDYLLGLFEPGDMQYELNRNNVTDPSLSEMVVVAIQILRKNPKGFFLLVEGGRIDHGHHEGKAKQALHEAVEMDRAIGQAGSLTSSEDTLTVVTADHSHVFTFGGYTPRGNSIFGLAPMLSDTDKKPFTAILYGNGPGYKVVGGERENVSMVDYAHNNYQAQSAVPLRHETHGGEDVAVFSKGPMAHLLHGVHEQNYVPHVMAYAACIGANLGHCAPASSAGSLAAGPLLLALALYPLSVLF
# Method Summary: human TNAP enzyme inhibitors, SAR follow-up, biochemical, luminescent, dose response (AID 1056)
Active and inactive are the calls of the source. Cut-off read from the data, not from the text of the source: actives have a measured IC50 and inactives only a lower limit.
# valid calls are 1 for active, -1 for inactive; nothing else

Worked set:
>  <Compound>
Sc1nc(-c2ccc(Cl)cc2Cl)n[nH]1

>  <Measurement Target>
Alkaline phosphatase, tissue-nonspecific isozyme (Homo sapiens, UniProt P05186)

>  <Answer Label>
-1

$$$$
>  <Compound>
CC1(C)CC(=O)c2c(-c3ccc(F)cc3)n[nH]c2C1

>  <Measurement Target>
Alkaline phosphatase, tissue-nonspecific isozyme (Homo sapiens, UniProt P05186)

>  <Answer Label>
1

$$$$
>  <Compound>
Cc1ccc(C)c(NC(=S)NC(NC(=O)Cc2cccc3ccccc23)C(Cl)(Cl)Cl)c1 (centres undefined)

>  <Measurement Target>
Alkaline phosphatase, tissue-nonspecific isozyme (Homo sapiens, UniProt P05186)

>  <Answer Label>
-1

$$$$

Next:
Answer briefly: the call reported for O=C1c2ccccc2C(=O)N1c1nncs1 in this assay.
-1
